test system: HOP-92 NSCLC; assay: NCI-60 one-dose screen, 48 h; conditions: 10 µM unless noted
Compounds without any hit were thinned out: in the full panel of roughly 83,000, 20% have a hit. Active and inactive are the calls of the source. How the source made its calls: active means growth percent below 10; inactive means the rest.
Choose one outcome from this list and give only that: active, inactive

Enquiry: Which outcome did this test record for the compound CCOC(=O)c1sc2ccc(NCc3nc[nH]c3C)cc2c1NC(=O)c1cc(OC)c(OC)c(OC)c1 ?
Return: inactive

Enquiry: Which outcome did this test record for the compound COc1ccc(/C=C(\C#N)n2nnc3cc(F)c(F)cc32)c(OC)c1OC ?
Return: inactive

Enquiry: Which outcome did this test record for the compound CCOC(=O)C(=CNc1ccccc1[N+](=O)[O-])C(=O)OCC ?
Return: inactive

Enquiry: Which outcome did this test record for the compound COc1cc(C(=O)/C=C/c2c(-c3ccc(F)cc3)nc3ncccn23)cc(OC)c1OC ?
Return: inactive

Enquiry: Which outcome did this test record for the compound CCCCCCCCn1cc(C2=C(c3coc4ccc(OC)cc34)C(=O)NC2=O)c2ccccc21 ?
Return: inactive

Enquiry: Which outcome did this test record for the compound COc1ccc(-c2cc(-c3ccc(Nc4nc(Nc5ccccc5)nc(Nc5ccc(Cl)cc5)n4)cc3)nc(N)c2C#N)cc1 ?
Return: active

Enquiry: Which outcome did this test record for the compound O=C1NC(=S)S/C1=C\N1N=C(c2ccc(Cl)cc2)CC1c1ccc(F)cc1 (configuration not stated) ?
Return: inactive

Enquiry: Which outcome did this test record for the compound COc1cc2c(cc1OC)-c1ccc3cc4c(cc3c1N(CCCn1ccnc1)C2)OCO4 ?
Return: inactive

Enquiry: Which outcome did this test record for the compound Nc1ccn(C2OC(F)(CO)C(O)C2F)c(=O)n1 (configuration not stated) ?
Return: inactive

Enquiry: Which outcome did this test record for the compound CC1(C)C(=O)/C(=C\c2cccnc2)C[C@]2(C)[C@H]3CC=C4[C@@H]5C[C@@](C)(C(=O)O)CC[C@]5(C)CC[C@@]4(C)[C@]3(C)CC[C@@H]12 ?
Return: inactive

Enquiry: Which outcome did this test record for the compound N#Cc1c(-c2ccc(C(F)(F)F)cc2)cc(N2CC(O)C2)n2c1nc1ccccc12 ?
Return: active

Enquiry: Which outcome did this test record for the compound COc1ccc(/C(C)=C(\c2ccc(Cl)cc2)c2ccc(OCCCN(C)C)cc2)cc1F ?
Return: inactive

----------
system: KM12 colon; test: NCI-60 one-dose screen, 48 h; settings: 10 µM unless noted
Compounds without any hit were thinned out: in the full panel of roughly 83,000, 20% have a hit. The source made the active and inactive calls. How the source made its calls: active means growth percent below 10; inactive means the rest.
Choose one outcome from this list and give only that: active, inactive

Enquiry: Which outcome did this test record for the compound Nc1nc(N)c(-c2ccc(Cl)cc2)c(/C=C/c2ccc([N+](=O)[O-])cc2)n1 ?
Return: inactive

Enquiry: Which outcome did this test record for the compound O=C1/C(=C/c2ccc([N+](=O)[O-])cc2)COc2ccc(O)c(O)c21 ?
Return: active

Enquiry: Which outcome did this test record for the compound COc1ccc2c(c1)/C(=C\c1sc(=S)[nH]c1O)C(C(=O)O)=N2 ?
Return: inactive

Enquiry: Which outcome did this test record for the compound Nc1ccc(S(=O)(=O)Nc2ccsc2-c2nc(-c3ccccc3)no2)cc1 ?
Return: inactive

Enquiry: Which outcome did this test record for the compound COc1ccc(-c2cc(-c3ccc(Nc4nc(Nc5ccccc5)nc(Nc5ccc(Cl)cc5)n4)cc3)nc(N)c2C#N)cc1 ?
Return: active

Enquiry: Which outcome did this test record for the compound C=CCN1C(=O)[C@]2(SC1=S)[C@H](c1cccc(Cl)c1)CN(C)[C@]21C(=O)NC2C=CC(Cl)=C[C@H]21 (stereo partly drawn) ?
Return: inactive

Enquiry: Which outcome did this test record for the compound CCNCCNc1cc(C2CCCC2)c(C#N)c2nc3ccccc3n12 ?
Return: inactive

Enquiry: Which outcome did this test record for the compound CCCn1nc(-c2ccccc2)c2c(-c3ccccc3)onc2c1=O ?
Return: inactive

Enquiry: Which outcome did this test record for the compound CCN(CC)CCCNC(=O)c1ccc(N)cc1O ?
Return: inactive

Enquiry: Which outcome did this test record for the compound COc1ccc(-c2cn(-c3cccc(C(=O)/C=C/c4cc(OC)c(OC)c(OC)c4)c3)c(=O)[nH]2)cc1 ?
Return: active

Enquiry: Which outcome did this test record for the compound CCN(CC)CCCNC(=O)c1ccc(N)cc1 ?
Return: inactive

Enquiry: Which outcome did this test record for the compound COc1ccc(Oc2nc(Nc3ccc(N4CCOCC4)nc3)ncc2NC(=O)c2cc(OC)cc(OC)c2)cc1 ?
Return: inactive

Enquiry: Which outcome did this test record for the compound C=C(C)[C@@H]1CC[C@]2(C(=O)NCC(=O)O)CC[C@]3(C)[C@H](CC[C@@H]4[C@@]5(C)Cc6c([nH]c7ccccc67)C(C)(C)[C@@H]5CC[C@]43C)[C@@H]12 ?
Return: inactive

----------
test system: HOP-92 NSCLC; assay: NCI-60 one-dose screen, 48 h; details: 10 µM unless noted
This is part of a sample that, as a whole, favours compounds with a hit. Of some 83,000 tested, about 20% had one in any assay. Active and inactive are the calls of the source. The calls were made as follows: active = growth percent below 10; inactive = the rest.
Choose one outcome from this list and give only that: class 1 for active, class 0 for inactive

Enquiry: Which outcome did this test record for the molecule [2H]c1nc(Nc2ncc(F)c(-c3cc(F)c4nc(C)n(C(C)C)c4c3)n2)c([2H])c([2H])c1CN1CCN(C([2H])([2H])C([2H])([2H])[2H])CC1 ?
Return: class 0

Enquiry: Which outcome did this test record for the molecule CN1CCN(C(=O)[C@]23CCC(C)(C)C[C@@H]2C2=CC[C@@H]4[C@@]5(C)Cc6c([nH]c7ccccc67)C(C)(C)[C@@H]5CC[C@@]4(C)[C@]2(C)CC3)CC1 ?
Return: class 0

Enquiry: Which outcome did this test record for the molecule CC(=O)c1cc2c(o1)C(=O)c1ccccc1C2=O ?
Return: class 1

Enquiry: Which outcome did this test record for the molecule CCN(CC)CCOc1ccc(/C(=C(\C)c2ccc(OC)c(F)c2)c2ccc(Cl)cc2)cc1 ?
Return: class 0

Enquiry: Which outcome did this test record for the molecule Clc1ccc2c(NCCCN3CCN(c4nc(-n5ccnc5)nc5ccccc45)CC3)ccnc2c1 ?
Return: class 0

Enquiry: Which outcome did this test record for the molecule CCN(CC)CCNc1ccc(C)c2sc3cc(C)ccc3c(=O)c12 ?
Return: class 0

Enquiry: Which outcome did this test record for the molecule Cc1nc(C)c(-c2nn3c(-c4cccc(F)c4)nnc3s2)s1 ?
Return: class 0

Enquiry: Which outcome did this test record for the molecule COC(=O)/C(=C\c1ccc(OC)cc1)C(=O)N1c2ccccc2Sc2ccccc21 ?
Return: class 0

Enquiry: Which outcome did this test record for the molecule C=C(C=O)[C@@H]1CC=C(C=O)CC1 ?
Return: class 1

Enquiry: Which outcome did this test record for the molecule COc1cc(/C=C/C(=O)c2cccc(-n3cc(-c4ccccc4)[nH]c3=O)c2)cc(OC)c1OC ?
Return: class 0

Enquiry: Which outcome did this test record for the molecule O=C1Nc2ccccc2SC1C1SC(=S)N(Cc2ccccc2)C1=O (configuration not stated) ?
Return: class 0

Enquiry: Which outcome did this test record for the molecule C#CC[C@H](N)C(=O)O ?
Return: class 0

----------
system: MOLT-4 leukemia; assay: NCI-60 one-dose screen, 48 h (100 = growth as untreated, 0 = no growth, -100 = all killed); conditions: 10 µM unless noted
This is part of a sample that, as a whole, favours compounds with a hit. Of some 83,000 tested, about 20% had one in any assay. Active and inactive are the calls of the source. The calls were made as follows: active = growth percent below 10; inactive = the rest.
propertyLabel: growth

Reported growth ( Cc1csc(NC(=O)c2sc3nc(-c4cccs4)ccc3c2N)n1 ) = 57.6% (inactive)

Reported growth ( N=C(N)c1ccc(-c2ccc(-c3ccc(Cl)cc3Cl)o2)nc1 ) = 1.62% (active)

Reported growth ( CC(=O)Nc1ccc2c(c1)Cc1c(F)cccc1-2 ) = 111% (inactive)

Reported growth ( CC(C)(C)OC(=O)N1Cc2cc3ccccc3nc2C1CO (stereo not drawn) ) = 128% (inactive)

Reported growth ( Cl.Fc1c[c-]c(-c2ccccn2)c(F)c1.[Pt].c1ccc([PH+](C[PH+](c2ccccc2)c2ccccc2)c2ccccc2)cc1 ) = -38.9% (active)

Reported growth ( CCN(CC)CCOc1ccc(/C(=C(\C)c2ccc(F)c(OC)c2)c2ccc(Cl)cc2)cc1 ) = -1.16% (active)

Reported growth ( CCOC(=O)C(O)C(O)(c1ccccc1)c1ccccc1 (stereo not drawn) ) = 95.1% (inactive)

Reported growth ( O=C(NCCN1CCC(O)CC1)c1cc2c(o1)C(=O)c1ccccc1C2=O ) = -4.13% (active)

Reported growth ( Cn1cc(-c2ccc3nc(-c4ccc(CC(=O)Nc5cc(C(C)(C)C)no5)cc4)cnc3c2)cn1 ) = 22.1% [30 µM] (inactive)

Reported growth ( O=C(NCOC(O)C(Cl)(Cl)Cl)NCOC(O)C(Cl)(Cl)Cl (stereo not drawn) ) = 98.9% (inactive)

Reported growth ( O=C(c1ccccc1)c1ccc(N2C(=O)C3C4c5ccccc5C(/C=C/C(=O)c5ccccn5)(c5ccccc54)C3C2=O)cc1 (stereo not drawn) ) = 16% (inactive)

Reported growth ( CCC(O)(C(c1ccccc1)c1ccccn1)C(c1ccccc1)c1ccccn1 (stereo not drawn) ) = 87% (inactive)

Reported growth ( N#C/C(=C\c1ccc(Br)cc1)n1nnc2ccccc21 ) = 9.75% (active)

Reported growth ( CC[C@]1(O)C[C@H]2CN(CCc3c([nH]c4ccccc34)[C@@](C(=O)OC)(c3cc4c(cc3OC)N(C=O)[C@H]3[C@@](O)(C(=O)OC)[C@H](OC(C)=O)[C@]5(CC)C=CCN6CC[C@]43[C@@H]65)C2)C1 ) = 5.04% (active)

Reported growth ( CN1CCN(C(=O)[C@@]2(C)CC[C@]3(C)CC[C@]4(C)C(=CC[C@@H]5[C@@]6(C)C/C(=C/c7ccncc7)C(=O)C(C)(C)[C@@H]6CC[C@]54C)[C@@H]3C2)CC1 ) = 2.16% (active)

Reported growth ( COc1ccc(OC)c(/C=C2\COc3ccc(O)c(O)c3C2=O)c1 ) = 4.32% (active)

Reported growth ( CN(C)c1ccc(/C=N/NC(=O)COc2cc(=O)n(C)c3ccccc23)cc1 ) = 104% (inactive)

Reported growth ( O=[N+]([O-])c1ccc(-c2cc3c(Nc4ccc(Sc5nc6ccccc6s5)c(Cl)c4)ncnc3s2)cc1 ) = 23.7% (inactive)
